target: T1, human IL-13 (recombinant E. coli-expressed) (human, UniProt P35225 35-146); test: Biacore T100 SPR, mAb (supernatant) captured on anti-human IgG, IL13 analyte, 1:1 fit
T1 construct: also called hIL-13
T1 sequence (P35225 other isoform, or with tags, fused parts or gaps limits assumed): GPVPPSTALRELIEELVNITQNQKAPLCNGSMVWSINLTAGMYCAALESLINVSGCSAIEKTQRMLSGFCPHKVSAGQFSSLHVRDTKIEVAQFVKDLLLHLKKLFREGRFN
Each entry below lists one item and its recorded pKd value.
The meaning of pKd here: minus log10 of the concentration in molar units.

Binder	pKd
A1Y97PheL1 (antibody, human IgG1, kappa, V domains shown, CDRH3 variant of A1L1) VH: QVQLVQSGAEVKKPGSSVKVSCKASGFYIKDTYMHWVRQAPGQGLEWMGTIDPANGNTKYVPKFQGRVTITADESTSTAYMELSSLRSEDTAVYYCARSIFDDYHYDDYYAMDYWGQGTLVTVSS VL: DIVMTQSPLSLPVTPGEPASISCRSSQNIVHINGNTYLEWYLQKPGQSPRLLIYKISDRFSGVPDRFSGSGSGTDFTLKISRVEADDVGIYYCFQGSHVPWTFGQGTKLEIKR	9.21
A1H100A GlnL1 (antibody, human IgG1, kappa, V domains shown, CDRH3 variant of A1L1) VH: QVQLVQSGAEVKKPGSSVKVSCKASGFYIKDTYMHWVRQAPGQGLEWMGTIDPANGNTKYVPKFQGRVTITADESTSTAYMELSSLRSEDTAVYYCARSIYDDYQYDDYYAMDYWGQGTLVTVSS VL: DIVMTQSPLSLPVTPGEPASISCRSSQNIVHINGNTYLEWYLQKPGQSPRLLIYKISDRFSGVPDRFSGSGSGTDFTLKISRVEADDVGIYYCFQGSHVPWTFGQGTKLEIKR	9.56

The binder listed as A1I96ValL1 (antibody, human IgG1, kappa, V domains shown, CDRH3 variant of A1L1) VH: QVQLVQSGAEVKKPGSSVKVSCKASGFYIKDTYMHWVRQAPGQGLEWMGTIDPANGNTKYVPKFQGRVTITADESTSTAYMELSSLRSEDTAVYYCARSVYDDYHYDDYYAMDYWGQGTLVTVSS VL: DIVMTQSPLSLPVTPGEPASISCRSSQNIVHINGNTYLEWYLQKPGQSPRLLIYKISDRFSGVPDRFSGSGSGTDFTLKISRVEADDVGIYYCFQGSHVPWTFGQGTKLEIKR has a reported pKd of 9.16

// recorded pKd for A1Y100B TrpL1 (antibody, human IgG1, kappa, V domains shown, CDRH3 variant of A1L1) VH: QVQLVQSGAEVKKPGSSVKVSCKASGFYIKDTYMHWVRQAPGQGLEWMGTIDPANGNTKYVPKFQGRVTITADESTSTAYMELSSLRSEDTAVYYCARSIYDDYHWDDYYAMDYWGQGTLVTVSS VL: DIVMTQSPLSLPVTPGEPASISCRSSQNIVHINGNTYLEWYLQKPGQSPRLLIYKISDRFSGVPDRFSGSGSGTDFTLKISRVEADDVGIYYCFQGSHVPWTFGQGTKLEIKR : 10.02

The recorded pKd for A1Y100B ValL1 (antibody, human IgG1, kappa, V domains shown, CDRH3 variant of A1L1; also called A1Y100BVAL1; 829 (mAb)) VH: QVQLVQSGAEVKKPGSSVKVSCKASGFYIKDTYMHWVRQAPGQGLEWMGTIDPANGNTKYVPKFQGRVTITADESTSTAYMELSSLRSEDTAVYYCARSIYDDYHVDDYYAMDYWGQGTLVTVSS VL: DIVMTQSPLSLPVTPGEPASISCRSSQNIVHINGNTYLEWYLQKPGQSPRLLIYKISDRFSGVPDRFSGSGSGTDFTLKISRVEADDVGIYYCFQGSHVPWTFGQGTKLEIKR is 10.47
